meta.source: ChEMBL document CHEMBL1122631

For each entry below, report its LD50 value.
# assayDetails: Acute toxicity in mice, after intraperitoneal administration.
# Type: organism-based
# runParameters: mouse, in vivo, ip
Reply with just the number (in mg/kg).

Request: Given the compound Cc1ccc([C@@H]2c3ccccc3[C@@H]3[C@H]2CCCN3C)cc1 , what is its reported LD50?
Result: 232

Request: Given the compound Cc1ccc([C@@H]2c3ccccc3[C@H]3NCCC[C@@H]23)cc1N , what is its reported LD50?
Result: 40

Request: Given the compound Cc1ccc([C@@H]2c3ccccc3[C@H]3NCCC[C@@H]23)cc1 , what is its reported LD50?
Result: 60

Request: Given the compound Oc1ccc([C@@H]2c3ccccc3[C@H]3NCCC[C@@H]23)cc1 , what is its reported LD50?
Result: 30

###

# Organism: Rattus norvegicus
# assayDetails: Compound was tested for inhibition of uptake of [14C]norepinephrine (NE) into rat brain hypothalamus, in vitro.
# Format: functional
For each entry below, report its IC50 value.
Reply with just the number (in nM).

Request: Given the molecule Nc1ccc([C@@H]2c3ccccc3[C@H]3NCCC[C@@H]23)cc1 , what is its reported IC50?
Result: 7.4

Request: Given the molecule CNCCCN1c2ccccc2CCc2ccccc21 , what is its reported IC50?
Result: 25

Request: Given the molecule Cc1ccc([C@@H]2c3cc(O)ccc3[C@H]3NCCC[C@@H]23)cc1N , what is its reported IC50?
Result: 40

Request: Given the molecule c1ccc([C@@H]2c3ccccc3[C@H]3NCCC[C@@H]23)cc1 , what is its reported IC50?
Result: 18

Request: Given the molecule CCCN1CCC[C@H]2[C@H](c3ccccc3)c3ccccc3[C@H]21 , what is its reported IC50?
Result: 410

Request: Given the molecule CN1CCC[C@H]2[C@H](c3ccc(N)cc3)c3ccccc3[C@H]21 , what is its reported IC50?
Result: 110

Request: Given the molecule Nc1ccc([C@@H]2c3cc(O)ccc3[C@H]3NCCC[C@@H]23)cc1 , what is its reported IC50?
Result: 15

Request: Given the molecule Cc1ccc([C@@H]2c3cc(O)ccc3[C@H]3NCCC[C@@H]23)cc1 , what is its reported IC50?
Result: 31

Request: Given the molecule Cc1ccc([C@@H]2c3ccccc3[C@@H]3[C@H]2CCCN3C)cc1 , what is its reported IC50?
Result: 65

Request: Given the molecule CN1CCC[C@H]2[C@H](c3ccccc3)c3ccccc3[C@H]21 , what is its reported IC50?
Result: 12

Request: Given the molecule Nc1ccc([C@H]2c3ccccc3[C@H]3NCCC[C@@H]23)cc1 , what is its reported IC50?
Result: 180

###

# assayDetails: Acute toxicity in mice, after intraperitoneal administration.
# Format: organism-based
# runParameters: mouse, in vivo, ip
For each entry below, report its LD50 value.
Reply with just the number (in mg/kg).

Request: Given the molecule COc1ccc2c(c1)[C@H](c1ccc(C)cc1)[C@@H]1CCCN(C)[C@H]21 , what is its reported LD50?
Result: 6

Request: Given the molecule CCCN1CCC[C@H]2[C@@H](c3ccccc3)c3ccccc3[C@H]21 , what is its reported LD50?
Result: 90

Request: Given the molecule FC(F)(F)c1ccccc1[C@H]1c2ccccc2[C@H]2NCCC[C@@H]12 , what is its reported LD50?
Result: 24

Request: Given the molecule CN1CCC[C@H]2[C@H](c3ccc(N)cc3)c3ccccc3[C@H]21 , what is its reported LD50?
Result: 50

Request: Given the molecule c1ccc2c(c1)[C@@H](c1ccncc1)[C@@H]1CCCN[C@H]21 , what is its reported LD50?
Result: 20

###

# assayDetails: Acute toxicity in mice, after intraperitoneal administration.
# Type: organism-based
# runParameters: mouse, in vivo, ip
propertyName: LD50 (mg/kg)
Reply with just the number (in mg/kg).

Request: Given the molecule Cc1ccc([C@H]2c3cc(O)ccc3[C@H]3NCCC[C@@H]23)cc1 , what is its reported LD50?
Result: 34

Request: Given the molecule Cc1ccccc1[C@H]1c2ccccc2[C@H]2NCCC[C@@H]12 , what is its reported LD50?
Result: 52

Request: Given the molecule Nc1cccc([C@H]2c3ccccc3[C@H]3NCCC[C@@H]23)c1 , what is its reported LD50?
Result: 28

Request: Given the molecule Cc1cccc([C@@H]2c3ccccc3[C@@H]3[C@H]2CCCN3C)c1 , what is its reported LD50?
Result: 134

Request: Given the molecule CN1CCC[C@H]2[C@@H](c3ccccc3)c3ccccc3[C@H]21 , what is its reported LD50?
Result: 36

###

# Species on record: Rattus norvegicus
# assayDetails: Compound was tested for inhibition of uptake of [3H]dopamine (DA) into rat corpus striatum, in vitro.
# Type: functional
For each entry below, report its log10 of IC50 value.
Values reflect log10 of reported IC50 (µM).

Request: Given the compound CN1CCC[C@H]2[C@H](c3ccc(N)cc3)c3ccccc3[C@H]21 , what is its reported log10 of IC50?
Result: -0.62

Request: Given the compound CN1CCC[C@H]2[C@H](c3ccccc3)c3ccccc3[C@H]21 , what is its reported log10 of IC50?
Result: -1.00

Request: Given the compound Nc1ccc([C@@H]2c3cc(O)ccc3[C@H]3NCCC[C@@H]23)cc1 , what is its reported log10 of IC50?
Result: -1.34

Request: Given the compound Cc1ccc([C@@H]2c3ccccc3[C@@H]3[C@H]2CCCN3C)cc1 , what is its reported log10 of IC50?
Result: -1.05

Request: Given the compound Cc1ccc([C@@H]2c3cc(O)ccc3[C@H]3NCCC[C@@H]23)cc1 , what is its reported log10 of IC50?
Result: -1.77

Request: Given the compound Nc1ccc([C@@H]2c3ccccc3[C@H]3NCCC[C@@H]23)cc1 , what is its reported log10 of IC50?
Result: -1.36

Request: Given the compound Nc1ccc([C@H]2c3ccccc3[C@H]3NCCC[C@@H]23)cc1 , what is its reported log10 of IC50?
Result: -0.48

Request: Given the compound Cc1ccc([C@@H]2c3cc(O)ccc3[C@H]3NCCC[C@@H]23)cc1N , what is its reported log10 of IC50?
Result: -1.00

Request: Given the compound c1ccc([C@@H]2c3ccccc3[C@H]3NCCC[C@@H]23)cc1 , what is its reported log10 of IC50?
Result: -1.70

Request: Given the compound CCCN1CCC[C@H]2[C@H](c3ccccc3)c3ccccc3[C@H]21 , what is its reported log10 of IC50?
Result: -0.96

###

# assayDetails: Partition coefficient (logP)
# Type: physicochemical
# runParameters: octanol/water
propertyName: logP
Give your answer as a number; write no unit.

Request: Given the compound Cc1ccc([C@@H]2c3cc(O)ccc3[C@H]3NCCC[C@@H]23)cc1 , what is its reported logP?
Result: 3.13

Request: Given the compound Nc1ccc([C@@H]2c3cc(O)ccc3[C@H]3NCCC[C@@H]23)cc1 , what is its reported logP?
Result: 1.91

Request: Given the compound Cc1ccc([C@@H]2c3ccccc3[C@@H]3[C@H]2CCCN3C)cc1 , what is its reported logP?
Result: 3.83

Request: Given the compound Cc1ccc([C@@H]2c3cc(O)ccc3[C@H]3NCCC[C@@H]23)cc1N , what is its reported logP?
Result: 2.33

###

# assayDetails: Acute toxicity in mice, after intraperitoneal administration.
# Format: organism-based
# runParameters: mouse, in vivo, ip
For each entry below, report its LD50 value.
Give your result as the value with the unit written after it.

Request: Given the compound Cc1cccc([C@H]2c3ccccc3[C@@H]3[C@H]2CCCN3C)c1 , what is its reported LD50?
Result: 5 mg/kg

Request: Given the compound Nc1ccc([C@@H]2c3ccccc3[C@H]3NCCC[C@@H]23)cc1 , what is its reported LD50?
Result: 50 mg/kg

Request: Given the compound CCCCOc1ccc([C@@H]2c3ccccc3[C@H]3NCCC[C@@H]23)cc1 , what is its reported LD50?
Result: 46 mg/kg

Request: Given the compound Cc1ccc([C@H]2c3cc(O)ccc3[C@@H]3[C@H]2CCCN3C)cc1 , what is its reported LD50?
Result: 9 mg/kg

Request: Given the compound Cc1cccc([C@@H]2c3ccccc3[C@H]3NCCC[C@@H]23)c1 , what is its reported LD50?
Result: 21 mg/kg

Request: Given the compound Cc1cccc([C@H]2c3ccccc3[C@H]3NCCC[C@@H]23)c1 , what is its reported LD50?
Result: 34 mg/kg

Request: Given the compound Cc1ccc([C@@H]2c3cc(O)ccc3[C@H]3NCCC[C@@H]23)cc1N , what is its reported LD50?
Result: 210 mg/kg

Request: Given the compound COc1ccc2c(c1)[C@H](c1ccc(N)cc1)[C@@H]1CCCN[C@H]21 , what is its reported LD50?
Result: 50 mg/kg

Request: Given the compound Cc1ccc([C@H]2c3cc(O)ccc3[C@H]3NCCC[C@@H]23)cc1N , what is its reported LD50?
Result: 67 mg/kg

Request: Given the compound CN(C)c1ccc([C@@H]2c3cc(O)ccc3[C@H]3NCCC[C@@H]23)cc1 , what is its reported LD50?
Result: 159 mg/kg

Request: Given the compound Nc1ccc([C@H]2c3cc(O)ccc3[C@H]3NCCC[C@@H]23)cc1 , what is its reported LD50?
Result: 85 mg/kg

Request: Given the compound Cc1ccc([C@H]2c3ccccc3[C@H]3NCCC[C@@H]23)cc1 , what is its reported LD50?
Result: 120 mg/kg

Request: Given the compound Fc1ccccc1[C@H]1c2ccccc2[C@H]2NCCC[C@@H]12 , what is its reported LD50?
Result: 71 mg/kg

Request: Given the compound c1ccc([C@H]2c3ccccc3[C@H]3NCCC[C@@H]23)cc1 , what is its reported LD50?
Result: 50 mg/kg

Request: Given the compound CN1CCC[C@H]2[C@@H](c3ccccc3F)c3ccccc3[C@H]21 , what is its reported LD50?
Result: 8 mg/kg

Request: Given the compound COc1cc2c(cc1OC)[C@H]1NCCC[C@H]1[C@H]2c1ccc(N)cc1 , what is its reported LD50?
Result: 94 mg/kg

Request: Given the compound Cc1ccccc1[C@@H]1c2ccccc2[C@H]2NCCC[C@@H]12 , what is its reported LD50?
Result: 80 mg/kg

Request: Given the compound Cc1ccc([C@@H]2c3cc(O)ccc3[C@H]3NCCC[C@@H]23)cc1 , what is its reported LD50?
Result: 67 mg/kg

Request: Given the compound CN1CCC[C@H]2[C@@H](c3ccc(F)cc3)c3ccccc3[C@H]21 , what is its reported LD50?
Result: 22 mg/kg

Request: Given the compound Nc1ccc([C@H]2c3ccccc3[C@H]3NCCC[C@@H]23)cc1 , what is its reported LD50?
Result: 20 mg/kg
